- System: LNCaP cells
- Assay: Cell cytotoxicity assay (CellTiter-Glo, ATP-luciferase)
- Measurement Context: 20 μM, 72 hours, compounds replenished daily

{"Compound": "O=C1c2c(O)cccc2Cc2cccc(O)c21 [Compound 15, 1,8-dihydroxyanthracen-9(10H)-one, reference compound]", "cellular toxicity (cell viability)": "toxic"}

====

- Target Or System: recombinant human hepsin (Homo sapiens)
- Sequence (P05981 1-162 limits assumed): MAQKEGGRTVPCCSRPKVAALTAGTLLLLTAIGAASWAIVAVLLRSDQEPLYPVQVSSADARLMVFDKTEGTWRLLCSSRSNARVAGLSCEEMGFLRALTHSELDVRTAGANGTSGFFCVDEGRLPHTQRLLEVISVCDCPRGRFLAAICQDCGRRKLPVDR
- Sequence (P05981 163-417 limits assumed): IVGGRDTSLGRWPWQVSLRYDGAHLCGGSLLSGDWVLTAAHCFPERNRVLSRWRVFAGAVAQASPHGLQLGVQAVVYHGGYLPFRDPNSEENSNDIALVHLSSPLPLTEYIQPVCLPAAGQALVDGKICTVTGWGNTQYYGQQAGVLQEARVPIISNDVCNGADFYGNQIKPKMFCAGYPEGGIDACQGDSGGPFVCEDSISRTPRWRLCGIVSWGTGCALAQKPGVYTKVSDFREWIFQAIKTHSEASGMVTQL
- Assay: Hepsin activity assay (chromogenic substrate pyroGlu-Pro-Arg-pNA)
- Type: biochemical
Assay Metric: pIC50
// pIC50 is dimensionless: -log10 of concentration (M)

Exam item: Which pIC50 reading was recorded for the molecule `COc1cccc(OCCOc2cccc(/C=c3\sc4nc5ccccc5n4c3=O)c2)c1` ?
Marked response: 5.88

====

- Test system: HepG2 cells
- Assay: Cell cytotoxicity assay (CellTiter-Glo, ATP-luciferase)
- Measurement Context: HepG2, 20 μM, 72 hours, compounds replenished daily

{"Compound": "Cc1ccc(OCc2nnc(NC(=O)Nc3cccc(Cl)c3)s2)cc1C", "cellular toxicity (cell viability)": "without affecting"}
{"Compound": "O=C1C=CC(=O)N1c1cccc([N+](=O)[O-])c1", "cellular toxicity (cell viability)": "without affecting"}
{"Compound": "O=C1c2c(O)cccc2Cc2cccc(O)c21 [Compound 15, 1,8-dihydroxyanthracen-9(10H)-one, reference compound]", "cellular toxicity (cell viability)": "toxic"}
{"Compound": "O=C(Nc1ccc(-c2nc3ccccc3o2)c(O)c1)c1ccc(-c2cccc([N+](=O)[O-])c2)o1", "cellular toxicity (cell viability)": "without affecting"}
